Molecular target: yeast NMT (Saccharomyces cerevisiae)
Construct: 11,000-fold purified preparation of yeast NMT; endogenous in cells; host or cells: yeast (enzyme purified from yeast, 11,000-fold)
Sequence (P14743 1-455): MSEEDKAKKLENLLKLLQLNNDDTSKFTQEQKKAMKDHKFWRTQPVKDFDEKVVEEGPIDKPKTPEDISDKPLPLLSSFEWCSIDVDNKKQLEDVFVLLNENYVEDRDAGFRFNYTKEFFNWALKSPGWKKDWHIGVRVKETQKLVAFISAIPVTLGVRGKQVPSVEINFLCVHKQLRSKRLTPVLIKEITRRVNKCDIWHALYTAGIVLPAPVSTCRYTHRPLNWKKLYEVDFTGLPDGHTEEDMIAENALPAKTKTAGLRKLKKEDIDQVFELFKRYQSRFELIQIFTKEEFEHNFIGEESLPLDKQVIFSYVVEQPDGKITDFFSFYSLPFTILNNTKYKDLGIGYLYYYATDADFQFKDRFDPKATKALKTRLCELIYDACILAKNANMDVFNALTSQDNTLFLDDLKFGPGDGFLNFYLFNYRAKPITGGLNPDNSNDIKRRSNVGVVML
Assay: kinetic characterisation of fatty acid analogs as yeast NMT substrates
Assay type: biochemical
Settings: radiolabelled peptide at its Km, analog varied; myristate control = 100%
Property: Acyl CoA Vm; scope: individual compounds
Write it as a number; the unit % goes unstated.

Solved cases (3 shown):
## Input Consider the compound shown here: CCCCOCCCCCCCCCCC(=O)O [Compound I, 11-(1-Butoxy)undecanoic acid] What is its recorded Acyl CoA Vm?
## Output 80

## Input Consider the compound shown here: CCCCCCCCSCCCCC(=O)O [C, 5-(Octylthio)pentanoic acid] What is its recorded Acyl CoA Vm?
## Output 160

## Input Consider the compound shown here: CCCCCCCCCCCCCC(=O)O [myristic acid, reference compound] What is its recorded Acyl CoA Vm?
## Output 100

Others:
## Input Consider the compound shown here: C#CCOCCCCCCCCCC(=O)O [J, 10-(2-Propynoxy)decanoic acid] What is its recorded Acyl CoA Vm?
## Output 320

---

Biological target: yeast NMT (Saccharomyces cerevisiae)
Construct: 11,000-fold purified preparation of yeast NMT; endogenous in cells; host or cells: yeast (enzyme purified from yeast, 11,000-fold)
Assay: kinetic characterisation of fatty acid analogs as yeast NMT substrates
Assay type: biochemical
Conditions: peptide GNAAS[125I]YRR varied, fatty acid analog at 15 μM; myristate control = 100%
Text: Similar results were obtained using an 11,000-fold purified preparation of yeast NMT [Towler et al., Proc. Natl. Acad. Sci. USA 84, 2708-2712 (1987)]. […] For these Examples, each analog synthesized is characterized by ^1 H and ^13 C NMR as well as mass spectroscopy. […] In addition, these analogs differ markedly in hydrophobicity from myri-state as measured both by C18 reverse phase HPLC elution profiles and by 2-octanol/water partition coefficients. […]
Property: Peptide Vm; scope: individual compounds
Write it as a number; the unit % goes unstated.

## Input Consider the compound shown here: CCSCCCCCCCCCCC(=O)O [A, 11-(Ethylthio)undecanoic acid] What is its recorded Peptide Vm?
## Output 98

## Input Consider the compound shown here: `CCCCOCCCCCCCCCCC(=O)O` What is its recorded Peptide Vm?
## Output 25

Others:
## Input Consider the compound shown here: CCOCCCCCCCCCCC(=O)O [B, 11-(Ethoxy)undecanoic acid] What is its recorded Peptide Vm?
## Output 62

## Input Consider the compound shown here: `CCCCCCCCOCCCCC(=O)O` What is its recorded Peptide Vm?
## Output 335

## Input Consider the compound shown here: `CCCSCCCCCCCCCC(=O)O` What is its recorded Peptide Vm?
## Output 245

## Input Consider the compound shown here: `CCCOCCCCCCCCCC(=O)O` What is its recorded Peptide Vm?
## Output 150

## Input Consider the compound shown here: `CCCCCCCCSCCCCC(=O)O` What is its recorded Peptide Vm?
## Output 213

## Input Consider the compound shown here: CCCCCCCCCCCCCC(=O)O [myristic acid, reference compound] What is its recorded Peptide Vm?
## Output 100

## Input Consider the compound shown here: `COCCCCCCCCCCC(=O)O` What is its recorded Peptide Vm?
## Output 232

## Input Consider the compound shown here: `COCCCCCCCCCCCC(=O)O` What is its recorded Peptide Vm?
## Output 177

## Input Consider the compound shown here: `C#CCOCCCCCCCCCC(=O)O` What is its recorded Peptide Vm?
## Output 200

---

Property: Elution Time; scope: individual compounds
Assay: C18 reverse phase HPLC elution of fatty acyl peptides (hydrophobicity)
Assay type: physicochemical
Conditions: C18 reverse phase HPLC, acyl derivative of GNAAS[125I]YRR; Table 2

## Input Consider the compound shown here: CCCOCCCCCCCCCC(=O)O [H, 10-(Propoxy)decanoic acid] What is its recorded Elution Time?
## Output 11 to 12 min

---

Test: C18 reverse phase HPLC elution of fatty acyl peptides (hydrophobicity)
Type: physicochemical
Conditions: reverse phase HPLC
Method: The fatty acid analog acyl-peptide eluted 7 minutes earlier than the corresponding myristoyl peptide. The free peptide elutes in the void volume (3-5minutes). […] For these Examples, each analog synthesized is characterized by ^1 H and ^13 C NMR as well as mass spectroscopy. […] In addition, these analogs differ markedly in hydrophobicity from myri-state as measured both by C18 reverse phase HPLC elution profiles and by 2-octanol/water partition coefficients. […]
Quantity measured: elution time of fatty acyl derivative of GNAAAARR
Write your answer as a measured quantity: the number, then the unit.

## Input Consider the compound shown here: CCCCCCCCCC(=O)O [decanoic acid, reference compound] What is its recorded elution time of fatty acyl derivative of GNAAAARR?
## Output 9 min

Others:
## Input Consider the compound shown here: CCCCCCCCCCCCCC(=O)O [myristic acid, reference compound] What is its recorded elution time of fatty acyl derivative of GNAAAARR?
## Output 24 min

## Input Consider the compound shown here: CCCCCCCCCCCCCCCC(=O)O [palmitic acid, reference compound] What is its recorded elution time of fatty acyl derivative of GNAAAARR?
## Output 30 min

## Input Consider the compound shown here: CCCCCCCCCCCC(=O)O [dodecanoic acid, reference compound] What is its recorded elution time of fatty acyl derivative of GNAAAARR?
## Output 18 min

---

Biological target: yeast NMT (Saccharomyces cerevisiae, UniProt P14743)
Construct: 11,000-fold purified preparation of yeast NMT; endogenous in cells; host or cells: yeast (enzyme purified from yeast, 11,000-fold)
Sequence (P14743 1-455): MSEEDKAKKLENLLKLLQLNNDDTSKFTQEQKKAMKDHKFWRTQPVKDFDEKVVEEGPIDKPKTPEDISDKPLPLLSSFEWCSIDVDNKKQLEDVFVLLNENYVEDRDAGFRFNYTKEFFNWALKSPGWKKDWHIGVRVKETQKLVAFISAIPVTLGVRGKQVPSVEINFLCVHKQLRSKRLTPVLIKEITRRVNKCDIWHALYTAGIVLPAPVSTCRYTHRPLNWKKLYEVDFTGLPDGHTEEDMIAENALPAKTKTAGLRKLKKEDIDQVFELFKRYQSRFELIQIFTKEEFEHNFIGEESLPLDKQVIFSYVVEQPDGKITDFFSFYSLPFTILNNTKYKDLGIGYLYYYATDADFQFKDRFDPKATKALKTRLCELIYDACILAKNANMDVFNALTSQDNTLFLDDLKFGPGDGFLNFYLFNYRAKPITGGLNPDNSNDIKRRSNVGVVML
Experiment: kinetic characterisation of fatty acid analogs as yeast NMT substrates
Type: biochemical
Settings: radiolabelled peptide at its Km, analog varied; read-out: Acyl CoA Km
Text: Similar results were obtained using an 11,000-fold purified preparation of yeast NMT [Towler et al., Proc. Natl. Acad. Sci. USA 84, 2708-2712 (1987)]. […] For these Examples, each analog synthesized is characterized by ^1 H and ^13 C NMR as well as mass spectroscopy. […] In addition, these analogs differ markedly in hydrophobicity from myri-state as measured both by C18 reverse phase HPLC elution profiles and by 2-octanol/water partition coefficients. […]
Cut-off 2 µM on Km: below means Criterion met, at or above means Criterion not met.

These solved cases illustrate the format of a correct answer.
## Input Is it true that Km reported for CCCSCCCCCCCCCC(=O)O [G, 10-(Propylthio)decanoic acid] is less than 2 µM?
## Output Criterion met

## Input Is it true that Km reported for CCCOCCCCCCCCCC(=O)O [H, 10-(Propoxy)decanoic acid] is less than 2 µM?
## Output Criterion not met

## Input Is it true that Km reported for CCCCCCCCCCCCCC(=O)O [myristic acid, reference compound] is less than 2 µM?
## Output Criterion met

## Input Is it true that Km reported for CCCCCCCCOCCCCC(=O)O [F, 5-(octyloxy)pentanoic acid] is less than 2 µM?
## Output Criterion met

## Input Is it true that Km reported for C#CCOCCCCCCCCCC(=O)O [J, 10-(2-Propynoxy)decanoic acid] is less than 2 µM?
## Output Criterion not met

Others:
## Input Is it true that Km reported for CCCCCCCCSCCCCC(=O)O [C, 5-(Octylthio)pentanoic acid] is less than 2 µM?
## Output Criterion met

## Input Is it true that Km reported for CCOCCCCCCCCCCC(=O)O [B, 11-(Ethoxy)undecanoic acid] is less than 2 µM?
## Output Criterion met

## Input Is it true that Km reported for CCCCOCCCCCCCCCCC(=O)O [Compound I, 11-(1-Butoxy)undecanoic acid] is less than 2 µM?
## Output Criterion met

## Input Is it true that Km reported for CCSCCCCCCCCCCC(=O)O [A, 11-(Ethylthio)undecanoic acid] is less than 2 µM?
## Output Criterion met

## Input Is it true that Km reported for COCCCCCCCCCCC(=O)O [D, 11-(Methoxy)undecanoic acid] is less than 2 µM?
## Output Criterion not met
